- experimental_details: RP, Waters ACQUITY UPLC HSS C18, 100 × 2.1 mm, 1.7 µm, 40 °C, 0.35 mL/min, estimated dead time 0.63 min; A: water + 0.1% formic acid; B: methanol + 0.1% formic acid; gradient (min/%B) 0/0.5 4/70 4.5/98 5.4/98
- protocol_conditions: stereoisomer not certain
Below, each entry is listed alongside its reported LC retention time.
property_name: LC retention time (min)

O=C(O)c1ccccc1C(=O)O :: 3.32
O=c1ccn(C2OC(CO)C(O)C2O)c(=O)[nH]1 (stereo unspecified) :: 1.66
CCOC(=O)C(N)Cc1c[nH]c2ccccc12 (stereo unspecified) :: 3.82
C=Cc1ccc(O)cc1 :: 4.46
CCC(=O)OC(CC(=O)[O-])C[N+](C)(C)C (stereo unspecified) :: 1.82
COC(=O)c1cccnc1 :: 3.23
O=C(NO)c1ccccc1O :: 3.04
C[N+](C)(C)CCOP(=O)([O-])OP(=O)(O)OCC1OC(n2ccc(N)nc2=O)C(O)C1O (stereo unspecified) :: 0.822
CC(CN)C(=O)O (stereo unspecified) :: 0.839
CNC(=O)c1cccnc1 :: 1.82
CC(NC(=O)Cc1c[nH]c2ccccc12)C(=O)O (stereo unspecified) :: 4
CCCOC(=O)c1ccc(O)cc1 :: 5.25
O=C(O)CCCCCCCC(=O)O :: 4.56
CCOC(=O)C1=CC(OC(CC)CC)C(NC(C)=O)C(N)C1 (stereo unspecified) :: 4.43
CCC(C)C(=O)NCC(=O)O (stereo unspecified) :: 2.97
Oc1cccc(O)c1O :: 1.94
CCCCCC(=O)NCC(=O)O :: 4.08
Cn1c(=O)c2c(ncn2C)n(C)c1=O :: 3.23
O=C(O)c1ccccc1O :: 2.19
Nc1ccccc1C(=O)CC(N)C(=O)O (stereo unspecified) :: 2.2
O=c1[nH]c(=O)c2ncn(C3OC(COP(=O)(O)O)C(O)C3O)c2[nH]1 (stereo unspecified) :: 1.41
O=C(O)c1ccoc1 :: 3.35
Nc1ccccc1C(=O)O :: 3.65
CC(CCC(=O)O)C(=O)O (stereo unspecified) :: 2.97
OCc1ccccc1OC1OC(CO)C(O)C(O)C1O (stereo unspecified) :: 2.82
CC(=O)Oc1cc(C)c(OC(C)=O)c2ccccc12 :: 5.35
CN(C)CCOC(C)(c1ccccc1)c1ccccn1 (stereo unspecified) :: 3.14
CC(C)C(O)(CC(=O)O)C(=O)O (stereo unspecified) :: 3.35
Cc1cc2nc3c(=O)[nH]c(=O)nc-3n(CC(O)C(O)C(O)CO)c2cc1C (stereo unspecified) :: 3.5
O=C(O)C=Cc1c[nH]c2ccccc12 :: 4.59
O=Cc1ccc(O)cc1 :: 3.39
